target: CB1 receptor (Rattus norvegicus, UniProt P20272); construct: membranes were prepared from rat forebrain membranes; from tissue; host or cells: rat forebrain membranes; experiment: CB1 receptor binding assay, [3H]CP-55,940 displacement, rat forebrain membranes
Sequence (P20272 whole entry): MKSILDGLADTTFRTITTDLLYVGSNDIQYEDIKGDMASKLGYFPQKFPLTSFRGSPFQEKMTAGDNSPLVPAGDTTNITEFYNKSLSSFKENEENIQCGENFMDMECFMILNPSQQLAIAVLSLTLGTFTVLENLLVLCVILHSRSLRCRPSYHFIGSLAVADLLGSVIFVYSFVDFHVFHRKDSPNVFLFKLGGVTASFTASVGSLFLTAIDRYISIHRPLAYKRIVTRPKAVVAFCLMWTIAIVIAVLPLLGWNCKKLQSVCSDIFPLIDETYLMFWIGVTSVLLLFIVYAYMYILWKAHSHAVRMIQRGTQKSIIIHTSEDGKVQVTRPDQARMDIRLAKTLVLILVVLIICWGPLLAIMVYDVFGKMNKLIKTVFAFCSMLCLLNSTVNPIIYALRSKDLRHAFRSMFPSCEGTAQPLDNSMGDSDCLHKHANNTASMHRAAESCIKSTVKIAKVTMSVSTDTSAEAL
// boundary case: Ki equal to 7 nM maps to label 0; strictly smaller maps to label 1

Consider the worked cases shown below.
CN1CCCCC1Cn1nc(C(=O)Nc2cccc3ccccc23)c2ccccc21 (centres unmarked): label 0
N#CCCCCn1nc(C(=O)NC23CC4CC(CC(C4)C2)C3)c2ccccc21: label 1
O=C(NC12CC3CC(CC(C3)C1)C2)c1nn(CCCCCl)c2ccccc12: label 1

Query compound follows.
hey, is Ki for O=C(Nc1cccc2ccccc12)c1nn(CCCCCl)c2ccccc12 lower than 7 nM or not?
label 1
